Entry source: ChEMBL document CHEMBL1649091

target: UniProt:P00742; experiment: Inhibition of human factor 10a assessed as 25 x 10^-6M chromogenic TH substrate hydrolysis at 1 x 10^-3M
Sequence (P00742 41-179 limits assumed): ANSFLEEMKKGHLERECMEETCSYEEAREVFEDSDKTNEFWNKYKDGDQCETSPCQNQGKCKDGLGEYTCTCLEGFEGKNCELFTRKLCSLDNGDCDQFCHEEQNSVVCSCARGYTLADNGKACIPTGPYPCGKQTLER
Sequence (P00742 235-488 limits assumed): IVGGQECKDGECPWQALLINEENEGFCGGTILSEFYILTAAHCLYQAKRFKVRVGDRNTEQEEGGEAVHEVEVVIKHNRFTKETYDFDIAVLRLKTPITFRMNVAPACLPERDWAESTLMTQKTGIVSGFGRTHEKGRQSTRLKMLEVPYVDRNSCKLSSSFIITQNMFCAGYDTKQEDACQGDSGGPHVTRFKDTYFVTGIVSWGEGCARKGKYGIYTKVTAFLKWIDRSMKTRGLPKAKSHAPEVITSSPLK
The source made the active and inactive calls. No cut-off for these calls is given here.
recorded_metric: inhibition

- compound_structure_string: "COc1ccc(-c2cc(=O)c3c(O)cc(O[C@@H]4O[C@H](CO[C@@H]5O[C@@H](C)[C@H](OS(=O)(=O)O)[C@@H](OS(=O)(=O)O)[C@H]5OS(=O)(=O)O)[C@@H](OS(=O)(=O)O)[C@H](OS(=O)(=O)O)[C@H]4OS(=O)(=O)O)cc3o2)cc1O"
  result: "inactive"
- compound_structure_string: "C[C@H]1O[C@@H](OC[C@@H]2O[C@H](Oc3c(-c4ccc(OS(=O)(=O)O)c(OS(=O)(=O)O)c4)oc4cc(OS(=O)(=O)O)cc(OS(=O)(=O)O)c4c3=O)[C@@H](OS(=O)(=O)O)[C@H](OS(=O)(=O)O)[C@H]2OS(=O)(=O)O)[C@@H](OS(=O)(=O)O)[C@@H](OS(=O)(=O)O)[C@@H]1OS(=O)(=O)O"
  result: "30.9%"
- compound_structure_string: "COc1ccc([C@@H]2CC(=O)c3c(O)cc(O[C@@H]4O[C@H](CO[C@@H]5O[C@@H](C)[C@H](OS(=O)(=O)O)[C@@H](OS(=O)(=O)O)[C@H]5OS(=O)(=O)O)[C@@H](OS(=O)(=O)O)[C@H](OS(=O)(=O)O)[C@H]4OS(=O)(=O)O)cc3O2)cc1O"
  result: "inactive"
- compound_structure_string: "C[C@H]1O[C@@H](OC[C@@H]2O[C@H](Oc3c(-c4ccc(OCCOS(=O)(=O)O)c(OCCOS(=O)(=O)O)c4)oc4cc(OCCOS(=O)(=O)O)cc(O)c4c3=O)[C@@H](OS(=O)(=O)O)[C@H](OS(=O)(=O)O)[C@H]2OS(=O)(=O)O)[C@@H](OS(=O)(=O)O)[C@@H](OS(=O)(=O)O)[C@@H]1OS(=O)(=O)O"
  result: "41.9%"
